biological target: TRPA1 receptor (Homo sapiens, UniProt O75762); construct: expressed in transfected cells; host or cells: HEK cell line; test: cell-based; set-up: dose or concentration left out as unconfirmed; conditions: HEK293, read-out: TRPA1 Pre-incubation
Sequence (O75762 whole entry): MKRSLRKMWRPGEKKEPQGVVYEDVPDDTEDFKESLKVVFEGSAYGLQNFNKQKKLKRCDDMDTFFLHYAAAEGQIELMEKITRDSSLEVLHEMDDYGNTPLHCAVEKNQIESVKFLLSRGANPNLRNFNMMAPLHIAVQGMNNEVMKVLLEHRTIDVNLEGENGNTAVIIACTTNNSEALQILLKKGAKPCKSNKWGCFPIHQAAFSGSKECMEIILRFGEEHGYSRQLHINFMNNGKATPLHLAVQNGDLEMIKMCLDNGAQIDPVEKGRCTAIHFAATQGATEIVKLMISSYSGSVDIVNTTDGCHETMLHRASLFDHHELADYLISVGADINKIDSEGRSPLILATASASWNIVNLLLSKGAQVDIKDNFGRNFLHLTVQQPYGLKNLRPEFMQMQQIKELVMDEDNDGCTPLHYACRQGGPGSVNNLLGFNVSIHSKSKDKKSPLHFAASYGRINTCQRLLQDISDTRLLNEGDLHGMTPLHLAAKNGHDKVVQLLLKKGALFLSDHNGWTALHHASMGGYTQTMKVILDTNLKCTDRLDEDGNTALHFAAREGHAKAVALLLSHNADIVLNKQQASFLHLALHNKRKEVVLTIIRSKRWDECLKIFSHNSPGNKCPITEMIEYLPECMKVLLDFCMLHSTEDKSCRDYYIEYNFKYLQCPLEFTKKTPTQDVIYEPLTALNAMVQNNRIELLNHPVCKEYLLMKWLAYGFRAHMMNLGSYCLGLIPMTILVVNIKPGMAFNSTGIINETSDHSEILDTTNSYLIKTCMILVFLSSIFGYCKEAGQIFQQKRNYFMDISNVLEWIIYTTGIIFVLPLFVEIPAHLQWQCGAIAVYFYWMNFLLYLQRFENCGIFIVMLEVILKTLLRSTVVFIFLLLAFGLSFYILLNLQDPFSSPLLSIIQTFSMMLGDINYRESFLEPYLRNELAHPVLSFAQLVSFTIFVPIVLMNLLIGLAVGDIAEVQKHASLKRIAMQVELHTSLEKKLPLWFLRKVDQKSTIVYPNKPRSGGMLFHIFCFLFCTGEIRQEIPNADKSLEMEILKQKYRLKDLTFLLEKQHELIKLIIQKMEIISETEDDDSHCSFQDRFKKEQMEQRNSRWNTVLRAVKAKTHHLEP
Quantity Measured: activation (%)
Express your answer in %, writing the number without its unit.

# Compound, Experimental Target, activation / %
measured = [
    ("O=C1NS(=O)(=O)c2ccccc21.[Na] [Saccharin Sodium]", "TRPA1 receptor (Homo sapiens, UniProt O75762)", 62.5),
    ("CC(=O)O [Acetic Acid]", "TRPA1 receptor (Homo sapiens, UniProt O75762)", 68.5),
    ("CC(C)CCO [Isoamyl Alcohol]", "TRPA1 receptor (Homo sapiens, UniProt O75762)", 70.9),
    ("CCOC(=O)Cc1ccccc1 [Ethyl Phenylacetate]", "TRPA1 receptor (Homo sapiens, UniProt O75762)", 76.2),
]

## Input Would you mind telling me what activation value was observed for COC(OC)c1ccccc1 [Benzaldehyde Dimethyl Acetal] ?
## Output 120

## Input Would you mind telling me what activation value was observed for CC(C)CC=C(C=O)c1ccccc1 [5-Methyl-2-Phenyl-2-Hexenal] ?
## Output -11.7
